Recorded endpoint: melting point (°C)

Some solved cases for reference:
INSERT INTO assay_data (compound_smiles, value) VALUES
  ('CCCCCCCCCCCCCc1c2nc(c(-c3cccc(O)c3)c3ccc([nH]3)c(CCCCCCCCCCCCC)c3nc(c(-c4cccc(O)c4)c4ccc1[nH]4)C=C3)C=C2', 133),
  ('CCCCCCCCCCCCCc1c2nc(c(CCCCCCCCCCCCC)c3ccc([nH]3)c(-c3cccc(O)c3)c3nc(c(-c4cccc(O)c4)c4ccc1[nH]4)C=C3)C=C2', 113);

1. CCCCCCc1c2nc(c(CCCCCC)c3ccc([nH]3)c(-c3ccc(C(=O)OC)cc3)c3nc(c(-c4ccc(C(=O)OC)cc4)c4ccc1[nH]4)C=C3)C=C2
2. CCCCCCc1c2nc(c(-c3ccc(C(=O)OC)cc3)c3ccc([nH]3)c(CCCCCC)c3nc(c(-c4ccc(C(=O)OC)cc4)c4ccc1[nH]4)C=C3)C=C2
*Q* Between 1 and 2 , which one shows the larger melting point value? Your choice should be expressed through its label.
*A* 2
